system: patient-derived VMC23 cell line (epithelioid MPM); experiment: MTT cytotoxicity assay, 72 h, VMC23; assay type: cell-based, human; details: exposure time 72 h
// assign Yes if IC50 falls strictly below 900 nM, else No (ties count as No)

Reference set, count: 3
CC[N+](CC)=C1[S][Au-]2([S]1)[c]1ccccc1Cc1cccc[n+]12.F[P-](F)(F)(F)(F)F (stereo not shown) [2B] : No
F[P-](F)(F)(F)(F)F.c1cc[c]2c(c1)-c1cccc[n+]1[Au-]21[S]C(=[N+]2CCCC2)[S]1 (stereo not shown) [1F] : No
C[N+](C)=C1[S][Au-]2([S]1)[c]1ccccc1-c1cccc[n+]12.F[P-](F)(F)(F)(F)F (stereo not shown) [1A] : Yes

Prompt line: Strictly below 900 nM in IC50? F[P-](F)(F)(F)(F)F.c1cc[c]2c(c1)-c1cccc[n+]1[Au-]21[S]C(=[N+]2CCCCCC2)[S]1 (stereo not shown) [1G]
Response line: Yes

Prompt line: Similarly, F[P-](F)(F)(F)(F)F.c1cc[c]2c(c1)Nc1cccc[n+]1[Au-]21[S]C(=[N+]2CCCCCC2)[S]1 (stereo not shown) [5G] ?
Response line: Yes

Prompt line: What would you report for CC[N+](CC)=C1[S][Au-]2([S]1)[c]1ccccc1C(=O)c1cccc[n+]12.F[P-](F)(F)(F)(F)F (stereo not shown) [3B] ?
Response line: No

Prompt line: Do the same for C[N+](C)=C1[S][Au-]2([S]1)[c]1ccccc1Cc1cccc[n+]12.F[P-](F)(F)(F)(F)F (stereo not shown) [2A] please
Response line: No
